// inhibition at 1 µM lookup, one value per entry
target: FAAH (Mus musculus (Mouse)); test: In vitro competitive activity-based protein profiling, FAAH (mouse); assay type: biochemical; details: 1 μM, read-out: FAAH % inh. 1 μM (mouse)
Sequence (O08914 whole entry): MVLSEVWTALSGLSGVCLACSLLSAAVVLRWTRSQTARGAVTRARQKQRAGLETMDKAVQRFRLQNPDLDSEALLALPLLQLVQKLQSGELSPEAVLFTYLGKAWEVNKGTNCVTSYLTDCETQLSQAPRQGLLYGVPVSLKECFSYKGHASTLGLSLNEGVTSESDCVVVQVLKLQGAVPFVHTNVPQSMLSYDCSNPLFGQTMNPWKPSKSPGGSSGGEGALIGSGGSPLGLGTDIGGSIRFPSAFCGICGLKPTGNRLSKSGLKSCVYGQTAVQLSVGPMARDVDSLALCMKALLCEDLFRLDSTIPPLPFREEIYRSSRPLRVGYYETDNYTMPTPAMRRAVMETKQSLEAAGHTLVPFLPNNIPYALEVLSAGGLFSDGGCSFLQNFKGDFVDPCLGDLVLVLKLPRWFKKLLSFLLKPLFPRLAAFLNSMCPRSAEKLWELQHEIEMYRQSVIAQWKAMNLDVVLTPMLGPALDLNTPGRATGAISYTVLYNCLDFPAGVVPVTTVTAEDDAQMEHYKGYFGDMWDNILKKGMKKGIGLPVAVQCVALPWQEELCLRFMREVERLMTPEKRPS
observation.type: inhibition at 1 µM

[[record]]
compound = "CC(=O)N(C)c1cnn(C(=O)N2CCC3(CC2)CN(Cc2ccccc2F)C3)c1 [Example 41]"
observed_value = "50 to 75%"

[[record]]
compound = "CS(=O)(=O)Nc1cnn(C(=O)N2CCN(Cc3ccc(-c4cnccn4)cc3C(F)(F)F)CC2)c1 [Example 289]"
observed_value = "≥ 75%"

[[record]]
compound = "CC(=O)N(C)c1cnn(C(=O)N2CC3CN(Cc4cccc(Cl)c4)CC3C2)c1 (stereo not shown) [Example 10]"
observed_value = "≥ 75%"

[[record]]
compound = "CC(=O)N(C)c1cnn(C(=O)N2CC3CN(Cc4cccc(N5CCCC5)c4)CC3C2)c1 (stereo not shown) [Example 119]"
observed_value = "≥ 75%"


---

biological target: MAGL (Mus musculus (Mouse)); experiment: In vitro competitive activity-based protein profiling, MAGL (mouse); format: biochemical; conditions: 1 μM, read-out: MAGL % inh. 1 μM (mouse)
Sequence (O35678 whole entry): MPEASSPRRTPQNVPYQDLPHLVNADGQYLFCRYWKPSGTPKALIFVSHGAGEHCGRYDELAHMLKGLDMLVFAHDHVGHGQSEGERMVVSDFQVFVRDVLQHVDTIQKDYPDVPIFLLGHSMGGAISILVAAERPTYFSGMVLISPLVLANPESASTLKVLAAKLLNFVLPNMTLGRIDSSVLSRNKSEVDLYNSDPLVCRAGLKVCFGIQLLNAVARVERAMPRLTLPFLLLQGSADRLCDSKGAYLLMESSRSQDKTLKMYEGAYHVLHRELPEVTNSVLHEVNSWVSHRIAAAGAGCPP
observation.type: inhibition at 1 µM

[[record]]
compound = "CC(=O)N(C)c1cnn(C(=O)N2CC3CN(Cc4ccc(N5CCCC5)c(Cl)c4)CC3C2)c1 (stereo not drawn) [Example 123]"
observed_value = "≥ 75%"

[[record]]
compound = "CC(=O)N(C)c1cnn(C(=O)N2CCC3(CCN(Cc4cccc(C)c4)C3)C2)c1 (stereo not drawn) [Example 80]"
observed_value = "0 to 25%"

[[record]]
compound = "CC(=O)N(C)c1cnn(C(=O)N2CCN(Cc3ccc(Cl)cc3)CC2)c1 [Example 194]"
observed_value = "≥ 75%"

[[record]]
compound = "COc1ccc(CN2CC3CN(C(=O)n4cc(N(C)C(C)=O)cn4)CC3C2)cc1 (stereo not drawn) [Example 179]"
observed_value = "25 to 50%"

[[record]]
compound = "CS(=O)(=O)Nc1cnn(C(=O)N2CCN(Cc3ccc(-c4ccc(C(N)=O)nc4)cc3C(F)(F)F)CC2)c1 [Example 302]"
observed_value = "25 to 50%"

[[record]]
compound = "CC(=O)N(C)c1cnn(C(=O)N2CC3CN(Cc4c(Cl)cccc4Cl)CC3C2)c1 (stereo not drawn) [Example 111]"
observed_value = "≥ 75%"

[[record]]
compound = "CC(=O)N(C)c1cnn(C(=O)N2CC3CN(Cc4ccc(OCC(=O)N5CCCC5)cc4Cl)CC3C2)c1 (stereo not drawn) [Example 189]"
observed_value = "≥ 75%"

[[record]]
compound = "CC(=O)N(C)c1cnn(C(=O)N2CCC3(CCN(Cc4cccc(C(F)(F)F)c4)C3)C2)c1 (single isomer, unassigned) [Example 65]"
observed_value = "≥ 75%"

[[record]]
compound = "CC(=O)N(C)c1cnn(C(=O)N2C[C@H]3C[C@H](N(C)Cc4cc(C(F)(F)F)ccc4Cl)C[C@H]3C2)c1 [Example 166]"
observed_value = "≥ 75%"

[[record]]
compound = "CC(=O)N(C)c1cnn(C(=O)N2CCN(Cc3cc(N4CCCC4)cc(C(F)(F)F)c3)CC2)c1 [Example 190]"
observed_value = "≥ 75%"

[[record]]
compound = "CS(=O)(=O)Nc1cnn(C(=O)N2CCN(Cc3ccc(-c4ncco4)cc3C(F)(F)F)CC2)c1 [Example 303]"
observed_value = "50 to 75%"

[[record]]
compound = "CC(=O)N(C)c1cnn(C(=O)N2CC3CN(Cc4ccc(Cl)c(C(F)(F)F)c4)CC3C2)c1 (stereo not drawn) [Example 98]"
observed_value = "≥ 75%"

[[record]]
compound = "CC(=O)N(C)c1cnn(C(=O)N2CC3CN(Cc4ccc(C(F)(F)F)c(N5CCCC5)c4)CC3C2)c1 (stereo not drawn) [Example 130]"
observed_value = "≥ 75%"

[[record]]
compound = "CC(=O)N(C)c1cnn(C(=O)N2CCC3(CCN(Cc4ccc(-c5ncccn5)cc4Cl)C3)C2)c1 (stereo not drawn) [Example 268]"
observed_value = "≥ 75%"

[[record]]
compound = "CC(=O)N(C)c1cnn(C(=O)N2CC3CN(Cc4cc(Cl)cc(OCc5ccccc5)c4)CC3C2)c1 (stereo not drawn) [Example 251]"
observed_value = "≥ 75%"

